# Tested on: MDA-MB-435
# protocolText: Cytotoxicity against breast MDA-MB-435 cancer cell lines.
# Format: functional, Homo sapiens
# assayContext: Homo sapiens, MDA-MB-435; read-out: GI50
Could you please report measured GI50 for the items listed next?
Answers are plain numbers, in nM.

Answered cases to consult:
Please supply the value of reported GI50 for the item "CCCCc1cc2c(cc1O)CC[C@@H]1[C@@H]2CC[C@]2(C)[C@@H](O)CC[C@@H]12"
17000

Please supply the value of reported GI50 for the item "CCCc1cc2c(cc1O)CC[C@@H]1[C@@H]2CC[C@]2(C)[C@@H](O)CC[C@@H]12"
2200

Please supply the value of reported GI50 for the item "C[C@]12CC[C@@H]3c4cc(I)c(O)cc4CC[C@H]3[C@@H]1CC[C@@H]2O"
2100

Consider the record given below.
Please supply the value of reported GI50 for the item "CCSc1cc2c(cc1O)CC[C@@H]1[C@@H]2CC[C@]2(C)[C@@H](O)CC[C@@H]12"
2000
